methodNotes: Plasma concentration in dual transgenic mouse expressing human CETP/ApoB-100 at 30 mg/kg, po measured at 8 hrs post dose
Format: ADME, organism-based
Attribute: concentration at 8 h
Respond numerically; units are nM and should not be typed.

compound="OC(CN[C@@](Cc1ccccc1)(c1cc(F)cc(OC(F)(F)C(F)F)c1)c1ccc(Cl)cn1)CC(F)(F)F (some centres not stated)" number=490

Note: attention shifts to another entry.
concentration at 8 h reading for `O[C@H](CN[C@@](Cc1ccccc1)(c1cc(F)cc(OC(F)(F)C(F)F)c1)c1ccc(Cl)cn1)C(F)(F)F` : 1300

----------
methodNotes: Metabolic stability in mouse liver microsomes assessed as compound remaining at 3 uM after 10 mins by UV absorbance method
Type: ADME
experimentalSetup: read-out: Stability
experimentalEndpoint: remaining at 10 min, 3 µM (%)
Note: unit % is implicit; provide only the numeric part.

Take a look at these entries with their results.
compound=CC(C)Oc1cc([C@@](Cc2ccccc2)(NC[C@H](O)CC(F)(F)F)c2cc(F)cc(OC(F)(F)C(F)F)c2)ccc1F experimentalendpoint="remaining at 10 min, 3 µM" number=85
compound="OC(CN[C@@](Cc1ccccc1)(c1cc(F)cc(OC(F)(F)C(F)F)c1)c1ccc(Cl)cn1)CC(F)(F)F (some centres not stated)" experimentalendpoint="remaining at 10 min, 3 µM" number=88
compound="OC(CN[C@@](Cc1ccccc1)(c1cc(F)cc(C(F)(F)F)c1)c1ccc(Cl)cn1)CC(F)(F)F (some centres not stated)" experimentalendpoint="remaining at 10 min, 3 µM" number=73
compound=O=C(N[C@@](Cc1ccccc1)(c1cc(F)cc(C(F)(F)F)c1)c1ccc(Cl)cn1)c1ccc(F)c(C(F)(F)F)c1 experimentalendpoint="remaining at 10 min, 3 µM" number=100
compound=CC(C)Oc1cc([C@@](Cc2ccccc2)(NC[C@@H](O)C(F)(F)F)c2cc(F)cc(OC(F)(F)C(F)F)c2)ccc1F experimentalendpoint="remaining at 10 min, 3 µM" number=85

What the record says about `O[C@H](CN[C@@](Cc1ccccc1)(c1cc(F)cc(C(F)(F)F)c1)c1ccc(Cl)cn1)C(F)(F)F` : remaining at 10 min, 3 µM is 95

compound `O[C@H](CN[C@@](Cc1ccccc1)(c1cc(F)cc(OC(F)(F)C(F)F)c1)c1ccc(Cl)cn1)C(F)(F)F` , remaining at 10 min, 3 µM observed: 88
